Hey, just so you know, these numbers are from patent US20250236608A1.

Consider the following compounds and their measured pIC50 readings.
- TARGET SYSTEM: EGFR (d746-750) (Homo sapiens (Human), UniProt P00533, DEL746-750)
- Sequence (P00533 other isoform, or with tags, fused parts or gaps del 1-694/del 746-750 limits assumed): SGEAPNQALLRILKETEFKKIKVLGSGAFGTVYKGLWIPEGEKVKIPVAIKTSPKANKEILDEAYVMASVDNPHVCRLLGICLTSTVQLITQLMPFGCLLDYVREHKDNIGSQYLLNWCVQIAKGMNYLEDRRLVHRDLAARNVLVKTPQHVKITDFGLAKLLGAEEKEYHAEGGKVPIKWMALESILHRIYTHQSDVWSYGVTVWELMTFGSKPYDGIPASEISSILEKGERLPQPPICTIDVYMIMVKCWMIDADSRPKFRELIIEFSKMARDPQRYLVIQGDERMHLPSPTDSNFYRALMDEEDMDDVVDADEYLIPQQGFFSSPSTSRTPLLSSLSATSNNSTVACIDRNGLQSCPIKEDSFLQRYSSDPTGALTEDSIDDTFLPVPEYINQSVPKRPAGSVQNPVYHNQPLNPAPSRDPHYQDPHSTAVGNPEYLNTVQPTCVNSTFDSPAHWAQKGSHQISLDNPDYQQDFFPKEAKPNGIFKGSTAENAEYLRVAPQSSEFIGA
- ASSAY OVERVIEW: Biochemical EGFR inhibition assay, EGFR (d746-750)
- DETAILS: Caliper mobility shift; 1.0 mM ATP or ATP Km; read-out: Enz EGFR_Exon19-del746-750 IC50
Lab note — pIC50 values are minus log10 of concentrations in M.

Past entries and their recorded results:
COMPOUND: CCOc1cc2ncnc(-c3cn(C)nc3-c3ccccc3)c2nc1NC(=O)[C@@]12C[C@@H]1CN(C)C2 (single isomer, unassigned)
TARGET SYSTEM: EGFR (d746-750) (Homo sapiens (Human), UniProt P00533, DEL746-750)
ENDPOINT LABEL: pIC50
MEASURED VALUE: 8.89

COMPOUND: COc1cc2ncnc(-c3cn(C)nc3-c3ccccc3)c2cc1NC(=O)N1C[C@@H](C)OC[C@@H]1C
TARGET SYSTEM: EGFR (d746-750) (Homo sapiens (Human), UniProt P00533, DEL746-750)
ENDPOINT LABEL: pIC50
MEASURED VALUE: 8.44

COMPOUND: CCOc1cc2ncnc(-c3cn(C(C)C)nc3-c3ccccc3)c2cc1[C@@H](C)O (single isomer, unassigned)
TARGET SYSTEM: EGFR (d746-750) (Homo sapiens (Human), UniProt P00533, DEL746-750)
ENDPOINT LABEL: pIC50
MEASURED VALUE: 8.66

COMPOUND: COc1cc2ncnc(-c3cn(CC(F)F)nc3-c3ccccc3)c2cc1NC(=O)c1scnc1C
TARGET SYSTEM: EGFR (d746-750) (Homo sapiens (Human), UniProt P00533, DEL746-750)
ENDPOINT LABEL: pIC50
MEASURED VALUE: 9.00

COMPOUND: COc1cc2ncnc(-c3cn(C)nc3-c3ccccc3)c2cc1C(O)C1CC1 (stereo not drawn)
TARGET SYSTEM: EGFR (d746-750) (Homo sapiens (Human), UniProt P00533, DEL746-750)
ENDPOINT LABEL: pIC50
MEASURED VALUE: 8.60

## Task Would you kindly share the measured pIC50 for COc1cc2ncnc(-c3cn(C)nc3-c3ccccc3)c2cc1O[C@@H]1CN(C)C[C@H]1F ?
## Result 8.80

## Task Return reported pIC50; argument: CCC(=O)Nc1cc2c(-c3cn(CC(F)F)nc3-c3ccccc3)ncnc2cc1OC
## Result 9.00

## Task Recorded pIC50 of COc1cc2ncnc(-c3cn(CC(F)F)nc3-c3ccccc3)c2cc1NC(=O)c1cnsc1 , please.
## Result 9.10
